Target: D(2) dopamine receptor (Homo sapiens, UniProt P14416)
Sequence (P14416 whole entry): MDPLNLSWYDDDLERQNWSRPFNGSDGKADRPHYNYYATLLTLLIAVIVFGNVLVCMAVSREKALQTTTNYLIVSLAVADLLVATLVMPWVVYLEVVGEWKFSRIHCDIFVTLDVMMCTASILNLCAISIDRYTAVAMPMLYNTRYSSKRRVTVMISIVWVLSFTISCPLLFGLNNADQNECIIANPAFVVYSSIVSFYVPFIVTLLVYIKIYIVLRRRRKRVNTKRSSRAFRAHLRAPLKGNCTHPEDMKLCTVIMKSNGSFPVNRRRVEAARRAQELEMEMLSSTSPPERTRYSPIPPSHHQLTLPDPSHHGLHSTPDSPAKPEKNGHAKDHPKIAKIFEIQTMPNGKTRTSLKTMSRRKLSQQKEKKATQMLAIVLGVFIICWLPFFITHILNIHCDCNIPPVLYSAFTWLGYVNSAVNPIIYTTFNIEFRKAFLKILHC
Assay: Inhibitory concentration against binding of [3H]spiperone to human D2 dopaminergic receptor
Measured quantity: IC50 (µM)
Answers are plain numbers, in µM.

Measured IC50, `Oc1ccc2c(c1)CCN2` : 1.03

====

Molecular target: UniProtKB P21917
Sequence (P21917 whole entry): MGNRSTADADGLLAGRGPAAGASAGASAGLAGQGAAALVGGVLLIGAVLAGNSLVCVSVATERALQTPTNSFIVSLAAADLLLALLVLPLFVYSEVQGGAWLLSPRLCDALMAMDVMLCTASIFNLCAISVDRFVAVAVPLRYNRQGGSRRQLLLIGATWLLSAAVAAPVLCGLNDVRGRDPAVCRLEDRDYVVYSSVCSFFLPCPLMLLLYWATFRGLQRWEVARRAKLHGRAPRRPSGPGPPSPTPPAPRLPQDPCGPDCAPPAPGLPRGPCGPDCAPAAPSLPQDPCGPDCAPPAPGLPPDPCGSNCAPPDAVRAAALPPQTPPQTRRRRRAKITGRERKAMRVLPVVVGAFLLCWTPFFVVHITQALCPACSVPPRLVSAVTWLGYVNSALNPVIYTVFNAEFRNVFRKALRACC
Measured quantity: pKi
One number for each entry, as −log10 of the molar value.

Previously resolved entries follow.
Compound | Result number
Oc1ccc(CC2NCCc3cc(O)c(O)cc32)cc1O (centres undefined) | 5.60
CC1NCCc2cc(O)c(O)cc21 (centres undefined) | 5.19
Oc1ccc2c(c1)CCN2 | 6.30

Turning to the following compound.
Measured pKi, OC[C@H]1O[C@H](Oc2ccc(CC3NCCc4cc(O)c(O)cc43)cc2)[C@H](O)[C@H](O)[C@H]1O (some centres undefined) : 5.92
